Test: Urinary recovery of thienamycin class compound in the mouse
Format: in vivo
Conditions: urine, po, 10 mg/kg, 1 hour, compound alone, 10 mg/kg oral
assayEndpoint: dose excreted at 1 h (%)
Field format: number, assumed %, no unit text.

CCSC1=C(C(=O)O)N2C(=O)[C@H]([C@@H](C)O)[C@H]2S1 (relative stereo) [Thienamycin Class Compound] has a reported dose excreted at 1 h of 1.8

---

Assay: Plasma level of thienamycin class compound in the mouse
Type: in vivo
Settings: po, 10 mg/kg, 30 minutes, compound alone, 10 mg/kg oral
assayEndpoint: concentration at 0.5 h (µg/mL)
Your answer should be a plain number; it is taken to be in µg/mL.

# concentration at 0.5 h (compound: CCSC1=C(C(=O)O)N2C(=O)[C@H]([C@@H](C)O)[C@H]2S1 (relative stereo) ) is 3700
